- Test system: Staphylococcus aureus SAU.399 (ATCC 43300), Methicillin and Oxacillin Resistant
- Format: cell-based
- Assay conditions: MHBc with 50 mg/L calcium, 18-20 hours at 37° C.
Sa399 MIC: recorded values
Hi! Could you send only the number? It should be in µg/mL, unit omitted.

Known Sa399 MIC results, listed for orientation:
>>> recorded_value("CCCCCCCCCCOc1ccc(C(=O)N[C@@H](Cc2c[nH]c3ccccc23)C(=O)N[C@H](CC(N)=O)C(=O)N[C@@H](CC(=O)O)C(=O)N[C@@H]2C(=O)NCC(=O)N[C@@H](CCCN)C(=O)N[C@@H](CC(=O)O)C(=O)N[C@H](C)C(=O)N[C@@H](CC(=O)O)C(=O)NCC(=O)N[C@H](CO)C(=O)N[C@@H]([C@H](C)CC(=O)O)C(=O)N[C@@H](CC(=O)c3ccccc3N)C(=O)O[C@@H]2C)cc1")
0.5
>>> recorded_value("CCCCCCCCCCCCCCCOc1ccc(C(=O)N[C@@H](Cc2c[nH]c3ccccc23)C(=O)N[C@H](CC(N)=O)C(=O)N[C@@H](CC(=O)O)C(=O)N[C@@H]2C(=O)NCC(=O)N[C@@H](CCCN)C(=O)N[C@@H](CC(=O)O)C(=O)N[C@H](C)C(=O)N[C@@H](CC(=O)O)C(=O)NCC(=O)N[C@H](CO)C(=O)N[C@@H]([C@H](C)CC(=O)O)C(=O)N[C@@H](CC(=O)c3ccccc3N)C(=O)O[C@@H]2C)cc1")
4.000

Proceeding to the next compound to report its Sa399 MIC.
Problem: Consider the compound CCCCCC1CCC(NC(=O)N[C@@H](Cc2c[nH]c3ccccc23)C(=O)N[C@H](CC(N)=O)C(=O)N[C@@H](CC(=O)O)C(=O)N[C@@H]2C(=O)NCC(=O)N[C@@H](CCCN)C(=O)N[C@@H](CC(=O)O)C(=O)N[C@H](C)C(=O)N[C@@H](CC(=O)O)C(=O)NCC(=O)N[C@H](CO)C(=O)N[C@@H]([C@H](C)CC(=O)O)C(=O)N[C@@H](CC(=O)c3ccccc3N)C(=O)O[C@@H]2C)CC1 (stereo partly drawn) and give its measured Sa399 MIC.
Result: 0.25

* * *

Quick reference: Sa278 MIC of the listed items.
- System: Staphylococcus aureus SAU.278, Daptomycin resistant mutant (D10)
- Type: cell-based
- Assay conditions: MHBc with 50 mg/L calcium, 18-20 hours at 37° C.
Numbers only; they are read as µg/mL.

>>> recorded_value("CCCCCCCCC1CC1C(=O)N[C@@H](Cc1c[nH]c2ccccc12)C(=O)N[C@H](CC(N)=O)C(=O)N[C@@H](CC(=O)O)C(=O)N[C@@H]1C(=O)NCC(=O)N[C@@H](CCCN)C(=O)N[C@@H](CC(=O)O)C(=O)N[C@H](C)C(=O)N[C@@H](CC(=O)O)C(=O)NCC(=O)N[C@H](CO)C(=O)N[C@@H]([C@H](C)CC(=O)O)C(=O)N[C@@H](CC(=O)c2ccccc2N)C(=O)O[C@@H]1C (single isomer, unassigned) [27 isomer II]")
2

# next compound below
Problem: Requested read-out: Sa278 MIC. Entry: `CCCCCCCc1ccc(NC(=O)N[C@@H](Cc2c[nH]c3ccccc23)C(=O)N[C@H](CC(N)=O)C(=O)N[C@@H](CC(=O)O)C(=O)N[C@@H]2C(=O)NCC(=O)N[C@@H](CCCN)C(=O)N[C@@H](CC(=O)O)C(=O)N[C@H](C)C(=O)N[C@@H](CC(=O)O)C(=O)NCC(=O)N[C@H](CO)C(=O)N[C@@H]([C@H](C)CC(=O)O)C(=O)N[C@@H](CC(=O)c3ccccc3N)C(=O)O[C@@H]2C)cc1`
Result: 1
